Molecular target: Cacnb1 (rat)
Assay: reporter assay of Huesken 2005
Settings: siRNA
Oligonucleotides are given in HELM: sugar(base)linkage, 5' to 3'; d 2'-deoxyribose, r ribose, m 2'-O-methylribose, p phosphate. ss, as = sense and antisense strand
Lab note: anything with normalised inhibition (eCFP-eYFP dual reporter) at or over 40% counts as satisfied; the rest go in not satisfied.

Answered examples (4):
(Q) Is normalised inhibition (eCFP-eYFP dual reporter) for RNA1{r(A)p.r(G)p.r(C)p.r(U)p.r(C)p.r(U)p.r(C)p.r(U)p.r(A)p.r(A)p.r(A)p.r(A)p.r(C)p.r(C)p.r(U)p.r(C)p.r(G)p.r(C)p.r(U)p.d(T)p.d(T)}|RNA2{r(A)p.r(G)p.r(C)p.r(G)p.r(A)p.r(G)p.r(G)p.r(U)p.r(U)p.r(U)p.r(U)p.r(A)p.r(G)p.r(A)p.r(G)p.r(A)p.r(G)p.r(C)p.r(U)p.d(G)p.d(G)}$$$RNA1{StrandType:ss}|RNA2{StrandType:as}$ at or above 40%?
(A) satisfied

(Q) Does the substance RNA1{r(A)p.r(G)p.r(C)p.r(C)p.r(G)p.r(G)p.r(C)p.r(C)p.r(G)p.r(U)p.r(C)p.r(A)p.r(G)p.r(A)p.r(C)p.r(U)p.r(C)p.r(C)p.r(G)p.d(T)p.d(T)}|RNA2{r(C)p.r(G)p.r(G)p.r(A)p.r(G)p.r(U)p.r(C)p.r(U)p.r(G)p.r(A)p.r(C)p.r(G)p.r(G)p.r(C)p.r(C)p.r(G)p.r(G)p.r(C)p.r(U)p.d(C)p.d(G)}$$$RNA1{StrandType:ss}|RNA2{StrandType:as}$ have recorded normalised inhibition (eCFP-eYFP dual reporter) that is 40% or more?
(A) satisfied

(Q) # bool: normalised inhibition (eCFP-eYFP dual reporter) of RNA1{r(A)p.r(A)p.r(C)p.r(C)p.r(G)p.r(C)p.r(C)p.r(U)p.r(C)p.r(A)p.r(G)p.r(C)p.r(U)p.r(C)p.r(C)p.r(A)p.r(G)p.r(C)p.r(A)p.d(T)p.d(T)}|RNA2{r(U)p.r(G)p.r(C)p.r(U)p.r(G)p.r(G)p.r(A)p.r(G)p.r(C)p.r(U)p.r(G)p.r(A)p.r(G)p.r(G)p.r(C)p.r(G)p.r(G)p.r(U)p.r(U)p.d(T)p.d(T)}$$$RNA1{StrandType:ss}|RNA2{StrandType:as}$ >= 40%
(A) satisfied

(Q) Please indicate if the recorded normalised inhibition (eCFP-eYFP dual reporter) for RNA1{r(A)p.r(G)p.r(C)p.r(A)p.r(A)p.r(C)p.r(C)p.r(A)p.r(C)p.r(C)p.r(C)p.r(A)p.r(C)p.r(C)p.r(U)p.r(G)p.r(G)p.r(C)p.r(C)p.d(T)p.d(T)}|RNA2{r(G)p.r(G)p.r(C)p.r(C)p.r(A)p.r(G)p.r(G)p.r(U)p.r(G)p.r(G)p.r(G)p.r(U)p.r(G)p.r(G)p.r(U)p.r(U)p.r(G)p.r(C)p.r(U)p.d(G)p.d(G)}$$$RNA1{StrandType:ss}|RNA2{StrandType:as}$ meets or exceeds 40%.
(A) not satisfied

Below: the item to evaluate.
(Q) Is normalised inhibition (eCFP-eYFP dual reporter) for RNA1{r(G)p.r(G)p.r(C)p.r(U)p.r(C)p.r(C)p.r(U)p.r(G)p.r(G)p.r(G)p.r(A)p.r(A)p.r(G)p.r(A)p.r(G)p.r(G)p.r(A)p.r(G)p.r(G)p.d(T)p.d(T)}|RNA2{r(C)p.r(C)p.r(U)p.r(C)p.r(C)p.r(U)p.r(C)p.r(U)p.r(U)p.r(C)p.r(C)p.r(C)p.r(A)p.r(G)p.r(G)p.r(A)p.r(G)p.r(C)p.r(C)p.d(C)p.d(T)}$$$RNA1{StrandType:ss}|RNA2{StrandType:as}$ at or above 40%?
(A) satisfied
